- EXPERIMENT NOTES: Phase 1 SAD/MAD study: plasma pharmacokinetics of Compound 1a (LC-MS-MS, noncompartmental analysis)
- Assay type: in vivo, human
- SETUP CONDITIONS: human, plasma, oral, 1000 mg, single dose of 1,000 mg, fed; read-out: average Tmax
METRIC NAME: Tmax (h)
Give the value in h but do not write h after it.

Summary for this molecule, O.O=C([O-])c1nn[nH]c1Oc1ccc(-c2ccc(C3CC(F)(F)C3)cc2)cc1.[Na+] [Compound 1a] : Tmax is 5.9

====

- EXPERIMENT NOTES: Phase 1 SAD/MAD study: plasma pharmacokinetics of Compound 1a (LC-MS-MS, noncompartmental analysis)
- Assay type: in vivo, human
- SETUP CONDITIONS: human, plasma, po, 120 mg, SAD 120 mg oral, fasted, average
- Procedure: Pharmacokinetics: Human K2-ethylenediaminetetraacetic acid (K2-EDTA) plasma samples were analyzed for Compound 1a by a validated method over a range of 1.0 to 1000 ng/mL based on the analysis of 100 μL of sample. Human plasma containing Compound 1a and the internal standard, Compound 1a-D4, was extracted using liquid-liquid extraction and analyzed by a Sciex API 4000 LC-MS-MS equipped with an HPLC column. […]
METRIC NAME: AUC(0-inf) (ng·h/mL)
Give the value in ng·h/mL but do not write ng·h/mL after it.

Summary for this compound, O.O=C([O-])c1nn[nH]c1Oc1ccc(-c2ccc(C3CC(F)(F)C3)cc2)cc1.[Na+] : AUC(0-inf) is 41400

====

- EXPERIMENT NOTES: Phase 1 SAD/MAD study: plasma pharmacokinetics of Compound 1a (LC-MS-MS, noncompartmental analysis)
- Type: in vivo, human
- SETUP CONDITIONS: human, plasma, po, 1000 mg, SAD 1,000 mg oral, fed, average
METRIC NAME: AUC(0-inf) (µg·h/mL)
Give the value in µg·h/mL but do not write µg·h/mL after it.

Summary for this compound, O.O=C([O-])c1nn[nH]c1Oc1ccc(-c2ccc(C3CC(F)(F)C3)cc2)cc1.[Na+] [Compound 1a] : AUC(0-inf) is 237

====

- EXPERIMENT NOTES: Phase 1 SAD/MAD study: plasma pharmacokinetics of Compound 1a (LC-MS-MS, noncompartmental analysis)
- Assay type: in vivo, human
- SETUP CONDITIONS: human, plasma, oral, 500 mg, MAD 500 mg q12h for 7 days, average, plasma; read-out: Day 7 AUC0-12
METRIC NAME: AUC(0-t) (µg·h/mL)
Give the value in µg·h/mL but do not write µg·h/mL after it.

Summary for this compound, O.O=C([O-])c1nn[nH]c1Oc1ccc(-c2ccc(C3CC(F)(F)C3)cc2)cc1.[Na+] : AUC(0-t) is 342

====

- EXPERIMENT NOTES: Phase 1 SAD/MAD study: plasma pharmacokinetics of Compound 1a (LC-MS-MS, noncompartmental analysis)
- Assay type: in vivo, human
- SETUP CONDITIONS: human, plasma, po, 360 mg, SAD 360 mg oral, fasted, average, plasma; read-out: Tmax
- Experimental: Pharmacokinetics: Human K2-ethylenediaminetetraacetic acid (K2-EDTA) plasma samples were analyzed for Compound 1a by a validated method over a range of 1.0 to 1000 ng/mL based on the analysis of 100 μL of sample. Human plasma containing Compound 1a and the internal standard, Compound 1a-D4, was extracted using liquid-liquid extraction and analyzed by a Sciex API 4000 LC-MS-MS equipped with an HPLC column. […]
METRIC NAME: Tmax (h)
Give the value in h but do not write h after it.

Summary for this compound, O.O=C([O-])c1nn[nH]c1Oc1ccc(-c2ccc(C3CC(F)(F)C3)cc2)cc1.[Na+] : Tmax is 2.28

====

- EXPERIMENT NOTES: Phase 1 SAD/MAD study: plasma pharmacokinetics of Compound 1a (LC-MS-MS, noncompartmental analysis)
- Format: in vivo, human
- SETUP CONDITIONS: human, plasma, oral, 125 mg, MAD 125 mg q12h for 7 days, average, plasma; read-out: Day 7 AUC0-12
METRIC NAME: AUC(0-t) (ng·h/mL)
Give the value in ng·h/mL but do not write ng·h/mL after it.

Summary for this compound, O.O=C([O-])c1nn[nH]c1Oc1ccc(-c2ccc(C3CC(F)(F)C3)cc2)cc1.[Na+] : AUC(0-t) is 45600

====

- EXPERIMENT NOTES: Phase 1 SAD/MAD study: plasma pharmacokinetics of Compound 1a (LC-MS-MS, noncompartmental analysis)
- Format: in vivo, human
- SETUP CONDITIONS: human, plasma, oral, 75 mg, MAD 75 mg qd for 7 days, average, plasma; read-out: Day 7 Tmax
METRIC NAME: Tmax at 7 days (h)
Give the value in h but do not write h after it.

Summary for this compound, O.O=C([O-])c1nn[nH]c1Oc1ccc(-c2ccc(C3CC(F)(F)C3)cc2)cc1.[Na+] : Tmax at 7 days is 2.45

====

- EXPERIMENT NOTES: Phase 1 SAD/MAD study: plasma pharmacokinetics of Compound 1a (LC-MS-MS, noncompartmental analysis)
- Format: in vivo, human
- SETUP CONDITIONS: human, plasma, po, 3000 mg, SAD 3,000 mg oral, fasted, average, plasma; read-out: Tmax
METRIC NAME: Tmax (h)
Give the value in h but do not write h after it.

Summary for this molecule, O.O=C([O-])c1nn[nH]c1Oc1ccc(-c2ccc(C3CC(F)(F)C3)cc2)cc1.[Na+] : Tmax is 2.94

====

- EXPERIMENT NOTES: Phase 1 SAD/MAD study: plasma pharmacokinetics of Compound 1a (LC-MS-MS, noncompartmental analysis)
- Format: in vivo, human
- SETUP CONDITIONS: human, plasma, oral, 40 mg, single dose 40 mg, healthy volunteers, geometric mean (geometric CV %); read-out: t1/2 (converted)
METRIC NAME: half-life
Just the number plus its unit, please.

Summary for this compound, O.O=C([O-])c1nn[nH]c1Oc1ccc(-c2ccc(C3CC(F)(F)C3)cc2)cc1.[Na+] : half-life is 25 h

====

- EXPERIMENT NOTES: Phase 1 SAD/MAD study: plasma pharmacokinetics of Compound 1a (LC-MS-MS, noncompartmental analysis)
- Format: in vivo, human
- SETUP CONDITIONS: human, plasma, po, 360 mg, SAD 360 mg oral, fasted, average, plasma; read-out: t1/2 (converted)
METRIC NAME: half-life (h)
Give the value in h but do not write h after it.

Summary for this compound, O.O=C([O-])c1nn[nH]c1Oc1ccc(-c2ccc(C3CC(F)(F)C3)cc2)cc1.[Na+] : half-life is 25.9

====

- EXPERIMENT NOTES: Phase 1 SAD/MAD study: plasma pharmacokinetics of Compound 1a (LC-MS-MS, noncompartmental analysis)
- Format: in vivo, human
- SETUP CONDITIONS: human, plasma, oral, 75 mg, MAD 75 mg qd for 7 days, average, plasma; read-out: Day 7 AUC0-24
- Protocol: Pharmacokinetics: Human K2-ethylenediaminetetraacetic acid (K2-EDTA) plasma samples were analyzed for Compound 1a by a validated method over a range of 1.0 to 1000 ng/mL based on the analysis of 100 μL of sample. Human plasma containing Compound 1a and the internal standard, Compound 1a-D4, was extracted using liquid-liquid extraction and analyzed by a Sciex API 4000 LC-MS-MS equipped with an HPLC column. […]
METRIC NAME: AUC(0-t)
Just the number plus its unit, please.

Summary for this compound, O.O=C([O-])c1nn[nH]c1Oc1ccc(-c2ccc(C3CC(F)(F)C3)cc2)cc1.[Na+] : AUC(0-t) is 23900 ng·h/mL

====

- EXPERIMENT NOTES: Phase 1 SAD/MAD study: plasma pharmacokinetics of Compound 1a (LC-MS-MS, noncompartmental analysis)
- Format: in vivo, human
- SETUP CONDITIONS: human, plasma, oral, 75 mg, MAD 75 mg qd for 7 days, average, plasma; read-out: Day 7 Cmax
METRIC NAME: Cmax at 7 days (ng/mL)
Give the value in ng/mL but do not write ng/mL after it.

Summary for this compound, O.O=C([O-])c1nn[nH]c1Oc1ccc(-c2ccc(C3CC(F)(F)C3)cc2)cc1.[Na+] : Cmax at 7 days is 3420

====

- EXPERIMENT NOTES: Phase 1 SAD/MAD study: plasma pharmacokinetics of Compound 1a (LC-MS-MS, noncompartmental analysis)
- Assay type: in vivo, human
- SETUP CONDITIONS: human, plasma, po, 1000 mg, SAD 1,000 mg oral, fasted, average
METRIC NAME: Cmax
Just the number plus its unit, please.

Summary for this compound, O.O=C([O-])c1nn[nH]c1Oc1ccc(-c2ccc(C3CC(F)(F)C3)cc2)cc1.[Na+] : Cmax is 19500 ng/mL

The measurements presented in this section are drawn from patent US20240423961A1.
